// provenance: ChEMBL document CHEMBL4002571

Test system: Pseudomonas aeruginosa
Test: Antibacterial activity against Pseudomonas aeruginosa ATCC 27853 after 18 hrs by liquid growth inhibition assay
Assay type: functional
Conditions: ATCC 27853, 18 h, read-out: MIC100
MEASUREMENT_NAME: MIC (µM)

• H-FLGELWNVWKSVF-NH2 = 3.12
• H-FLKALWNVAKSVF-NH2 = 0.78
• H-FLGALWNVAKSVF-NH2 = 0.78
• H-FLGALWNVAKKVF-NH2 = 0.39
• H-FLGALWEVAKSVF-NH2 = 0.78

A. H-FLGALWNVWKSVF-NH2
B. H-FLGELWNVAKSVF-NH2
C. H-FLGALWKVAKSVF-NH2
In this exercise, place the 3 substances in ascending sequence of their recorded MIC. Give the order by naming the labels one after another as requested. C, A, B

====

Test system: Erythrocyte
Assay: Hemolytic activity in human erythrocytes after 1 hr
Format: ADME, cell-based
As shown below, each of these substances has a reported MHC value.
The figure you give is taken to be in µmol/L; do not add the unit.

Worked cases, MHC given:
• H-FLKALWNVAKSVF-NH2 = 1.6
• H-FLGELWNVAKSVF-NH2 = 25
• H-FLGALWNVAKKVF-NH2 = 1.6
• H-FLGALWEVAKSVF-NH2 = 1.6
• H-FLGALWKVAKSVF-NH2 = 1.6

Which MHC value belongs to `H-FLGALWNVWKSVF-NH2` ? 1.6

What do you have for `H-FLGELWNVWKSVF-NH2` ? 1.6

What do you have for `H-FLGALWNVAKSVF-NH2` ? 6.25

====

Test system: Candida albicans
Test: Antifungal activity against Candida albicans MDM8 after 18 hrs by liquid growth inhibition assay
Type: functional
Conditions: MDM8, 18 h, read-out: MIC100
MEASUREMENT_NAME: MIC (µM)

a. H-FLGALWNVWKSVF-NH2
b. H-FLGELWNVWKSVF-NH2
Identify the item whose MIC is the smaller number: a or b Response format: the label of the selected entry. a

A. H-FLGELWNVAKSVF-NH2
B. H-FLGALWKVAKSVF-NH2
Which item exceeds the other in MIC, A or B ? Response format: the label of the selected entry. A

I. H-FLKALWNVAKSVF-NH2
II. H-FLGALWEVAKSVF-NH2
III. H-FLGALWNVAKKVF-NH2
Parameters: sort_field (MIC), sort_dir (desc). Give the order by naming the labels one after another as requested. II, I, III
(II: 12.5 µM, I: 3.12 µM, III: 1.56 µM)

====

Tested on: Escherichia coli
Assay: Antibacterial activity against Escherichia coli SBS 363 after 18 hrs by liquid growth inhibition assay
Format: functional
Conditions: SBS 363, 18 h, read-out: MIC100
MEASUREMENT_NAME: MIC (µM)

Worked cases, MIC given:
• H-FLGALWNVWKSVF-NH2 = 1.56
• H-FLKALWNVAKSVF-NH2 = 1.56
• H-FLGALWNVAKKVF-NH2 = 1.56
• H-FLGALWEVAKSVF-NH2 = 12.5

A. H-FLGELWNVWKSVF-NH2
B. H-FLGALWKVAKSVF-NH2
Identify the item whose MIC is the smaller number: A or B Response format: the label of the selected entry. B

====

Test system: Candida tropicalis
Test: Antifungal activity against Candida tropicalis IOC 4560 after 18 hrs by liquid growth inhibition assay
Format: functional
Settings: IOC 4560, 18 h, read-out: MIC100
MEASUREMENT_NAME: MIC (µM)

* H-FLGALWNVAKKVF-NH2 | 3.12

I. H-FLGALWNVWKSVF-NH2
II. H-FLGELWNVAKSVF-NH2
Which item exceeds the other in MIC, I or II ? Response format: the label of the selected entry. II
(II: 12.5 µM, I: 6.25 µM)

1. H-FLKALWNVAKSVF-NH2
2. H-FLGALWNVAKSVF-NH2
Identify the item whose MIC is the smaller number: 1 or 2 Response format: the label of the selected entry. 1

A. H-FLGALWKVAKSVF-NH2
B. H-FLGELWNVWKSVF-NH2
Which item exceeds the other in MIC, A or B ? Response format: the label of the selected entry. B
(B: 12.5 µM, A: 1.56 µM)

====

Tested on: Serratia marcescens
Experiment: Antibacterial activity against Serratia marcescens ATCC 4112 after 18 hrs by liquid growth inhibition assay
Type: functional
Conditions: ATCC 4112, 18 h, read-out: MIC100
MEASUREMENT_NAME: MIC (µM)

* H-FLGALWEVAKSVF-NH2 | 1.56

A. H-FLGELWNVWKSVF-NH2
B. H-FLKALWNVAKSVF-NH2
C. H-FLGALWNVAKKVF-NH2
In this exercise, place the 3 substances in ascending sequence of their recorded MIC. Give the order by naming the labels one after another as requested. C, B, A

A. H-FLGALWNVAKSVF-NH2
B. H-FLGELWNVAKSVF-NH2
Which item exceeds the other in MIC, A or B ? Response format: the label of the selected entry. B
(B: 3.12 µM, A: 1.56 µM)

I. H-FLGALWNVWKSVF-NH2
II. H-FLGALWKVAKSVF-NH2
Which item exceeds the other in MIC, I or II ? Response format: the label of the selected entry. I

====

System: Enterobacter cloacae
Assay: Antibacterial activity against Enterobacter cloacae beta-12 after 18 hrs by liquid growth inhibition assay
Format: functional
Details: beta-12, 18 h, read-out: MIC100
MEASUREMENT_NAME: MIC (µM)

I. H-FLGALWNVAKSVF-NH2
II. H-FLGALWNVWKSVF-NH2
Which item exceeds the other in MIC, I or II ? Response format: the label of the selected entry. I
(I: 25 µM, II: 6.25 µM)

I. H-FLGELWNVWKSVF-NH2
II. H-FLKALWNVAKSVF-NH2
Identify the item whose MIC is the smaller number: I or II Response format: the label of the selected entry. II
(II: 6.25 µM, I: 50 µM)

a. H-FLGALWNVAKKVF-NH2
b. H-FLGALWEVAKSVF-NH2
Identify the item whose MIC is the smaller number: a or b Response format: the label of the selected entry. a
(a: 6.25 µM, b: 25 µM)

====

System: Aspergillus niger
Assay: Antifungal activity against Aspergillus niger after 72 hrs by liquid growth inhibition assay
Assay type: functional
Details: read-out: MIC100
MEASUREMENT_NAME: MIC (µM)

Worked cases, MIC given:
- H-FLGALWNVAKKVF-NH2: 6.25
- H-FLGALWKVAKSVF-NH2: 6.25
- H-FLGALWNVAKSVF-NH2: 25

1. H-FLKALWNVAKSVF-NH2
2. H-FLGALWNVWKSVF-NH2
3. H-FLGALWEVAKSVF-NH2
Parameters: sort_field (MIC), sort_dir (desc). Give the order by naming the labels one after another as requested. 2, 3, 1
(2: 50 µM, 3: 25 µM, 1: 12.5 µM)
